Origin of measurements: the supplement of paper PMC9112550

- System: Escherichia coli TOP10
- testProtocol: shrunken log2 fold change of peptide-encoding DNA abundance (4.5 h post-induction vs induction); higher = less antimicrobial activity (less host growth inhibition)
- experimentalSetup: time post-induction: 4.5 h; library: site-saturation at positions 5, 18, 19, 20
Categories are assigned from the measured shrunken log2 fold change using these intervals: low: < -0.01; medium: ≥ -0.01 and < 0.1; high: ≥ 0.1

| seq | assignedLabel |
| --- | --- |
| RRIRVRPPRLPRPRPRPPNIPRP | low |
| RRIRIRPPRLPRPRPRPNDGPRP | low |
| RRIRGRPPRLPRPRPRPNGEPRP | high |
| RRIRYRPPRLPRPRPRPCHYPRP | medium |
| RRIRPRPPRLPRPRPRPFPVPRP | medium |
| RRIRLRPPRLPRPRPRPNFDPRP | medium |
| RRIRWRPPRLPRPRPRPHTPPRP | medium |
| RRIRWRPPRLPRPRPRPGCAPRP | high |
| RRIRKRPPRLPRPRPRPETKPRP | high |

====

- Test system: Escherichia coli TOP10
- testProtocol: shrunken log2 fold change of peptide-encoding DNA abundance (4.5 h post-induction vs induction); higher = less antimicrobial activity (less host growth inhibition)
- experimentalSetup: time post-induction: 4.5 h; library: site-saturation at positions 5, 18, 19, 20
Listing of entries alongside the reported shrunken log2 fold change.
quantityName: shrunken log2 fold change

| seq | measuredTarget | reported |
| --- | --- | --- |
| RRIRTRPPRLPRPRPRPVYSPRP | Escherichia coli TOP10 | -0.239 |
| RRIRCRPPRLPRPRPRPYMAPRP | Escherichia coli TOP10 | -0.283 |
| RRIRTRPPRLPRPRPRPAHNPRP | Escherichia coli TOP10 | -0.215 |
| RRIRPRPPRLPRPRPRPRNYPRP | Escherichia coli TOP10 | 0.000451 |
| RRIRDRPPRLPRPRPRPKVEPRP | Escherichia coli TOP10 | 0.109 |
| RRIRNRPPRLPRPRPRPYSCPRP | Escherichia coli TOP10 | -1.1 |
| RRIRARPPRLPRPRPRPANIPRP | Escherichia coli TOP10 | -0.19 |
| RRIRCRPPRLPRPRPRPVIRPRP | Escherichia coli TOP10 | -0.733 |
| RRIRQRPPRLPRPRPRPQFYPRP | Escherichia coli TOP10 | -0.407 |
| RRIRFRPPRLPRPRPRPTKCPRP | Escherichia coli TOP10 | 0.0225 |
| RRIRKRPPRLPRPRPRPYQWPRP | Escherichia coli TOP10 | -0.143 |
| RRIRLRPPRLPRPRPRPRFQPRP | Escherichia coli TOP10 | 0.0867 |
| RRIRQRPPRLPRPRPRPWYVPRP | Escherichia coli TOP10 | -0.0198 |
| RRIRLRPPRLPRPRPRPSWVPRP | Escherichia coli TOP10 | -0.141 |
| RRIRLRPPRLPRPRPRPYNEPRP | Escherichia coli TOP10 | -0.78 |
| RRIRIRPPRLPRPRPRPPIYPRP | Escherichia coli TOP10 | -0.592 |
| RRIRMRPPRLPRPRPRPFCNPRP | Escherichia coli TOP10 | -0.148 |
| RRIRVRPPRLPRPRPRPDMLPRP | Escherichia coli TOP10 | -0.024 |
| RRIRCRPPRLPRPRPRPAWGPRP | Escherichia coli TOP10 | 0.193 |
| RRIRWRPPRLPRPRPRPDMYPRP | Escherichia coli TOP10 | -0.389 |
| RRIRYRPPRLPRPRPRPLVCPRP | Escherichia coli TOP10 | -0.325 |
| RRIRHRPPRLPRPRPRPVHRPRP | Escherichia coli TOP10 | -0.143 |
| RRIRTRPPRLPRPRPRPLRGPRP | Escherichia coli TOP10 | 0.897 |

====

Listing of entries alongside the reported shrunken log2 fold change.
- Test system: Escherichia coli TOP10
- testProtocol: shrunken log2 fold change of peptide-encoding DNA abundance (4.5 h post-induction vs induction); higher = less antimicrobial activity (less host growth inhibition)
- experimentalSetup: time post-induction: 4.5 h; library: site-saturation at positions 5, 18, 19, 20

| seq | shrunken log2 fold change |
| --- | --- |
| RRIRFRPPRLPRPRPRPHKCPRP | -0.106 |
| RRIRLRPPRLPRPRPRPTWPPRP | 0.705 |
| RRIRGRPPRLPRPRPRPNPHPRP | 0.216 |
| RRIRFRPPRLPRPRPRPGQVPRP | -0.131 |
| RRIRWRPPRLPRPRPRPCTCPRP | 0.0236 |
| RRIRRRPPRLPRPRPRPGCKPRP | 0.12 |
| RRIRLRPPRLPRPRPRPQMQPRP | 0.017 |
| RRIRHRPPRLPRPRPRPPRDPRP | 0.346 |
| RRIRVRPPRLPRPRPRPSPTPRP | 0.0219 |
| RRIRARPPRLPRPRPRPPQFPRP | 0.953 |
| RRIRMRPPRLPRPRPRPVLVPRP | 0.223 |
| RRIRKRPPRLPRPRPRPSEPPRP | 0.249 |
| RRIRVRPPRLPRPRPRPTFPPRP | 0.0553 |
| RRIRGRPPRLPRPRPRPWIHPRP | 0.0779 |
| RRIRGRPPRLPRPRPRPNHDPRP | -0.185 |
| RRIRTRPPRLPRPRPRPTTMPRP | -0.109 |
| RRIRERPPRLPRPRPRPLKCPRP | -0.11 |
| RRIRKRPPRLPRPRPRPIYTPRP | -0.0648 |
| RRIRSRPPRLPRPRPRPFNAPRP | -0.459 |
| RRIRKRPPRLPRPRPRPENWPRP | 0.928 |
| RRIRSRPPRLPRPRPRPPGRPRP | 0.482 |
| RRIRTRPPRLPRPRPRPDGTPRP | -0.208 |
| RRIRERPPRLPRPRPRPCWMPRP | -0.239 |
| RRIRARPPRLPRPRPRPKCNPRP | 0.0681 |
| RRIRIRPPRLPRPRPRPHHSPRP | -0.46 |
| RRIRWRPPRLPRPRPRPKFLPRP | -0.0144 |
| RRIRYRPPRLPRPRPRPMFIPRP | -0.908 |
| RRIRPRPPRLPRPRPRPSAWPRP | 0.368 |
| RRIRNRPPRLPRPRPRPKNPPRP | 0.0494 |
| RRIRPRPPRLPRPRPRPDYQPRP | -0.211 |
| RRIRGRPPRLPRPRPRPDVHPRP | 0.867 |
| RRIRERPPRLPRPRPRPMNGPRP | -0.0134 |
| RRIRPRPPRLPRPRPRPFPYPRP | -0.0798 |
| RRIRHRPPRLPRPRPRPVVAPRP | -0.233 |
| RRIRWRPPRLPRPRPRPRNIPRP | 0.00817 |
| RRIRTRPPRLPRPRPRPFCVPRP | -0.229 |
| RRIRMRPPRLPRPRPRPVDKPRP | 0.0379 |
| RRIRTRPPRLPRPRPRPLNNPRP | -0.135 |
| RRIRMRPPRLPRPRPRPDDKPRP | 1.43 |
| RRIRARPPRLPRPRPRPVTAPRP | 0.654 |
| RRIRFRPPRLPRPRPRPEQMPRP | 0.19 |
| RRIRHRPPRLPRPRPRPDTVPRP | 0.028 |
| RRIRNRPPRLPRPRPRPRTVPRP | -0.403 |
| RRIRQRPPRLPRPRPRPYCDPRP | -0.431 |
| RRIRERPPRLPRPRPRPHDEPRP | 0.00178 |
| RRIRIRPPRLPRPRPRPVYRPRP | 0.00778 |
| RRIRPRPPRLPRPRPRPKAIPRP | 0.11 |
| RRIRARPPRLPRPRPRPGIVPRP | 0.174 |
| RRIRDRPPRLPRPRPRPWPYPRP | -0.0943 |
| RRIRSRPPRLPRPRPRPHFLPRP | -0.318 |
| RRIRLRPPRLPRPRPRPFYEPRP | -0.426 |
| RRIRDRPPRLPRPRPRPKHNPRP | -0.0986 |
| RRIRKRPPRLPRPRPRPFIKPRP | -0.0863 |
| RRIRHRPPRLPRPRPRPKWPPRP | 0.0116 |

====

Listing of entries alongside the reported shrunken log2 fold change.
- Test system: Escherichia coli TOP10;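 further: peptides expressed intracellularly from a pBAD plasmid library in pooled LB shake-flask culture, induced with 0.3% L-arabinose, DNA abundance read by NGS, three biological replicates, DESeq2 with apeglm shrinkage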
- testProtocol: shrunken log2 fold change of peptide-encoding DNA abundance (4.5 h post-induction vs induction); higher = less antimicrobial activity (less host growth inhibition)
- experimentalSetup: time post-induction: 4.5 h; library: site-saturation at positions 5, 18, 19, 20

| seq | shrunken log2 fold change |
| --- | --- |
| RRIRARPPRLPRPRPRPRYWPRP | 0.213 |
| RRIRRRPPRLPRPRPRPHWWPRP | 0.325 |
| RRIRWRPPRLPRPRPRPMGNPRP | -0.0828 |
| RRIRRRPPRLPRPRPRPIGSPRP | 0.318 |
| RRIRCRPPRLPRPRPRPLINPRP | -0.621 |
| RRIRCRPPRLPRPRPRPHNAPRP | -0.171 |
| RRIRHRPPRLPRPRPRPMNVPRP | -0.0594 |
| RRIRGRPPRLPRPRPRPWPRPRP | 0.37 |
| RRIRFRPPRLPRPRPRPTQSPRP | 0.691 |
| RRIRMRPPRLPRPRPRPGLFPRP | 0.236 |
| RRIRERPPRLPRPRPRPKIKPRP | -0.6 |
| RRIRHRPPRLPRPRPRPQLIPRP | 0.00748 |
| RRIRMRPPRLPRPRPRPVVSPRP | 0.095 |
| RRIRHRPPRLPRPRPRPRMYPRP | -0.194 |
| RRIRDRPPRLPRPRPRPMIEPRP | 0.0558 |
| RRIRRRPPRLPRPRPRPHGCPRP | 0.000335 |
| RRIRPRPPRLPRPRPRPKPRPRP | 0.502 |
| RRIRHRPPRLPRPRPRPCSFPRP | -0.309 |
| RRIRQRPPRLPRPRPRPEDAPRP | -0.132 |
| RRIRQRPPRLPRPRPRPCMPPRP | -0.27 |
| RRIRHRPPRLPRPRPRPHTNPRP | -0.672 |
| RRIRDRPPRLPRPRPRPQMIPRP | -0.197 |
| RRIRHRPPRLPRPRPRPWNNPRP | -0.453 |
| RRIRKRPPRLPRPRPRPEATPRP | 3.17 |
| RRIRDRPPRLPRPRPRPKTKPRP | -0.0788 |
| RRIRARPPRLPRPRPRPKCSPRP | 0.0215 |
| RRIRSRPPRLPRPRPRPFCVPRP | -0.128 |
| RRIRARPPRLPRPRPRPVSAPRP | 0.455 |
| RRIRCRPPRLPRPRPRPHEDPRP | -0.157 |
| RRIRGRPPRLPRPRPRPHPQPRP | 0.546 |
